Below, each of the compounds is paired with its reported IC50 value.
Target: Histone deacetylase 8 (Homo sapiens, UniProt Q9BY41)
Sequence (Q9BY41 whole entry): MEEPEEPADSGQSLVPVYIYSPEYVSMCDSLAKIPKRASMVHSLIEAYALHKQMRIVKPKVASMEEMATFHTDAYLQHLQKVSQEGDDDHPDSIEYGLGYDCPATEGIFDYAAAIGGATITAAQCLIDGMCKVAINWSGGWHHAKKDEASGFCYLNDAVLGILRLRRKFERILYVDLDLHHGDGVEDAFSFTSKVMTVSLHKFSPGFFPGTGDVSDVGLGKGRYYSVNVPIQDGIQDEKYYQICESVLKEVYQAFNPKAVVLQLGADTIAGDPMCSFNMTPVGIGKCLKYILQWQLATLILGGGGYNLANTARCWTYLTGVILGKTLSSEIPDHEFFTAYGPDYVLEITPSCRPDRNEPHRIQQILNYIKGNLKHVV
Assay: Inhibition of recombinant human full length HDAC8 using Fluor-de-Lys as substrate after 60 mins by spectrofluorimetric analysis

| given-smiles | experimental-target | test-result |
| --- | --- | --- |
| O=C(/C=C/c1ccc(S(=O)(=O)NCCc2cccc3[nH]ccc23)cc1)NO | Histone deacetylase 8 (Homo sapiens, UniProt Q9BY41) | > 100 nM |

Now consider a different compound.
Request: Supply reported IC50 belonging to this compound: `Cn1ccc2c(CCNS(=O)(=O)c3ccc(/C=C/C(=O)NO)cc3)cccc21`
Result: > 100 nM

----------
biological target: Histone deacetylase 2 (Homo sapiens, UniProt Q92769); assay: Inhibition of recombinant human full length HDAC2 using Fluor-de-Lys as substrate after 60 mins by spectrofluorimetric analysis
Sequence (Q92769 whole entry): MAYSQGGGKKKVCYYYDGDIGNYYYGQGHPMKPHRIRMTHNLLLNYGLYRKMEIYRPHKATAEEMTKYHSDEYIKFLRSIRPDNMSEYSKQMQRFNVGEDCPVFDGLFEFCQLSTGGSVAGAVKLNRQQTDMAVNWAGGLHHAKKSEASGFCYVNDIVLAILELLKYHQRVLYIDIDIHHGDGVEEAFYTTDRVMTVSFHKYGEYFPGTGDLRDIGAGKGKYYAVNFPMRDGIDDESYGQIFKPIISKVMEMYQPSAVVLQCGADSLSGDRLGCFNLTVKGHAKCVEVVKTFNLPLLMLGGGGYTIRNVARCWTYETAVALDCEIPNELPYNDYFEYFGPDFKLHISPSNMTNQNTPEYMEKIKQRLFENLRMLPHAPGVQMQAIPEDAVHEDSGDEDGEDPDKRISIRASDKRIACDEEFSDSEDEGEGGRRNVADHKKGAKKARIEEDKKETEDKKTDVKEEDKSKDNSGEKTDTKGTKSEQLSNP
reported-property: IC50 (nM)

a: Cn1ccc2c(CCNS(=O)(=O)c3ccc(/C=C/C(=O)NO)cc3)cccc21
b: O=C(/C=C/c1ccc(S(=O)(=O)NCCc2cccc3[nH]ccc23)cc1)NO
Request: Which value of IC50 is smaller, the one for a or the one for b ? Lab note: record the label of whichever item you select.
Result: a

# credit: ChEMBL document CHEMBL4020709
